- Tested system: Retinoic acid receptor alpha (Homo sapiens) (UniProt P10276)
- Sequence (whole entry): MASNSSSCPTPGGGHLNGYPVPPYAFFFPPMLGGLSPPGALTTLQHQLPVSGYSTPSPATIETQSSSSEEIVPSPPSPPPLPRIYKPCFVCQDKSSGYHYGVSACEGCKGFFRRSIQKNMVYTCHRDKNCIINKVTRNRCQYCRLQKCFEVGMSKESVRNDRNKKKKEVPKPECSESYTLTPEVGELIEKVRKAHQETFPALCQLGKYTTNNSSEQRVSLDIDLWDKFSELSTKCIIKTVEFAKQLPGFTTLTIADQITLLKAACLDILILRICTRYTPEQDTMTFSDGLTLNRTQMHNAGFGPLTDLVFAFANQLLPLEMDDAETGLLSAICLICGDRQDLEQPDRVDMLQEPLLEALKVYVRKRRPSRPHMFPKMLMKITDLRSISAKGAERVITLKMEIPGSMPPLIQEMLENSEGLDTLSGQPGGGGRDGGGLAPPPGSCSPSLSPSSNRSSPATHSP
- Method notes: Maximum retinoic acid receptor (RAR)-alpha transactivation activity relative to retinoic acid at 10e-6 M
Readout name: Max (%)
Number in %, nothing else.

Input: Assign Max to the following record: CC1(C)CCC(C)(C)c2c1cc(O)c(C(=O)c1ccc3cc(C(=O)O)ccc3c1)c2F
Output: 46

Input: Assign Max to the following record: Cc1cc2c(cc1C(O)c1ccc3cc(C(=O)O)ccc3c1)C(C)(C)CCC2(C)C (stereo unspecified)
Output: 0

Input: Assign Max to the following record: CC1(C)CCC(C)(C)c2c1ccc(C(O)c1ccc3cc(C(=O)O)ccc3c1)c2F (stereo unspecified)
Output: 0

Input: Assign Max to the following record: CC1(C)CCC(C)(C)c2cc(C(O)c3ccc4cc(C(=O)O)ccc4c3)c(O)cc21 (stereo unspecified)
Output: 0

Input: Assign Max to the following record: CC1(C)CCC(C)(C)c2cc(Oc3ccc4cc(C(=O)O)ccc4c3)ccc21
Output: 56

Input: Assign Max to the following record: CC1(C)CCC(C)(C)c2cc([S+]([O-])/C=C/c3ccc(C(=O)O)cc3)ccc21 (stereo unspecified)
Output: 42

Input: Assign Max to the following record: CC1(C)CCC(C)(C)c2c(F)cc(C(=O)c3ccc4cc(C(=O)O)ccc4c3)cc21
Output: 63

Input: Assign Max to the following record: COc1c(C(=O)c2ccc3cc(C(=O)O)ccc3c2)ccc2c1C(C)(C)CCC2(C)C
Output: 0

Input: Assign Max to the following record: COc1cc2c(cc1C(=O)c1ccc3cc(C(=O)O)ccc3c1)C(C)(C)CCC2(C)C
Output: 23

Input: Assign Max to the following record: Cc1cc2c(cc1C(=O)c1ccc3cc(C(=O)O)ccc3c1)C(C)(C)CCC2(C)C
Output: 26

Input: Assign Max to the following record: CC1(C)CCC(C)(C)c2cc(Nc3ccc4cc(C(=O)O)ccc4c3)ccc21
Output: 27

Input: Assign Max to the following record: CC1(C)CCC(C)(C)c2cc(S(=O)(=O)/C=C/c3ccc(C(=O)O)cc3)ccc21
Output: 0

Input: Assign Max to the following record: CC1(C)CCC(C)(C)c2cc(C(=O)c3ccc4cc(C(=O)O)ccc4c3)c(O)cc21
Output: 44

Input: Assign Max to the following record: COc1c(C(=O)c2ccc3c(c2)C(C)(C)CCC3(C)C)ccc2cc(C(=O)O)ccc12
Output: 0

Input: Assign Max to the following record: CC1(C)CCC(C)(C)c2cc(C(O)c3ccc4cc(C(=O)O)ccc4c3)ccc21 (stereo unspecified)
Output: 0

Input: Assign Max to the following record: CC1(C)CCC(C)(C)c2c(F)cc(C(O)c3ccc4cc(C(=O)O)ccc4c3)cc21 (stereo unspecified)
Output: 0

Input: Assign Max to the following record: CC1(C)CCC(C)(C)c2cc(C(O)c3ccc4cc(C(=O)O)ccc4c3)c(F)cc21 (stereo unspecified)
Output: 0

Input: Assign Max to the following record: CC1(C)CCC(C)(C)c2cc(Sc3ccc4cc(C(=O)O)ccc4c3)ccc21
Output: 45

Input: Assign Max to the following record: CC1(C)CCC(C)(C)c2cc(S(=O)(=O)c3ccc4cc(C(=O)O)ccc4c3)ccc21
Output: 0

Input: Assign Max to the following record: CC1(C)CCC(C)(C)c2cc([S+]([O-])c3ccc4cc(C(=O)O)ccc4c3)ccc21 (stereo unspecified)
Output: 0

Input: Assign Max to the following record: CC1(C)CCC(C)(C)c2cc(C(=O)c3ccc4cc(C(=O)O)ccc4c3)c(F)cc21
Output: 34
